# Test system: KRAS patient-derived spheroids with HUVEC/MSC, viability
# Assay Name: Anticancer human tumor 519858-162-T-J1-PDC patient-derived colon adenocarcinoma cell line growth inhibition [KRAS2]
# Experimental Context: second compound 3.16 µM; first compound 10 µM; hits give low values
Recorded Metric: viability, T/C (%)
Entry rule: numbers only, all in %.

Please review the following examples before continuing.
O=C(c1cc(Cc2n[nH]c(=O)c3ccccc23)ccc1F)N1CCN(C(=O)C2CC2)CC1 + COc1cc2nc(C)nc(NC(C)c3cc(N)cc(C(F)(F)F)c3)c2cc1OC1CCOC1: 66.8
Cn1nccc1Nc1nccc(-c2cc3c(s2)C(C)(C)N(CCN2CCOCC2)C3=O)n1 + C=CC(=O)N1CCN(c2nc(OCC3CCCN3C)nc3c2CCN(c2cccc4cccc(C)c24)C3)CC1CC#N: 17.6
COc1cc(Nc2ncc3c(n2)-c2ccc(Cl)cc2C(c2c(F)cccc2OC)=NC3)ccc1C(=O)O + CNCc1ccccc1-c1csc(C(C)Nc2nc(C)nc3cc(OC)c(OC)cc23)c1: 67.4
COc1cc2nccc(Oc3ccc(NC(=O)C4(C(=O)Nc5ccc(F)cc5)CC4)cc3)c2cc1OC + CNCc1ccccc1-c1csc(C(C)Nc2nc(C)nc3cc(OC)c(OC)cc23)c1: 0.54
CC1(C)CCC(CN2CCN(c3ccc(C(=O)NS(=O)(=O)c4ccc(NCC5CCOCC5)c([N+](=O)[O-])c4)c(Oc4cnc5[nH]ccc5c4)c3)CC2)=C(c2ccc(Cl)cc2)C1 + C=CC(=O)N1CCN(c2nc(=O)n(-c3c(C)ccnc3C(C)C)c3nc(-c4c(O)cccc4F)c(F)cc23)C(C)C1: 61.3
COc1cc(Nc2ncc3c(n2)-c2ccc(Cl)cc2C(c2c(F)cccc2OC)=NC3)ccc1C(=O)O + COc1cc2nc(C)nc(NC(C)c3cc(N)cc(C(F)(F)F)c3)c2cc1OC1CCOC1: 76.4
Cn1nccc1Nc1nccc(-c2cc3c(s2)C(C)(C)N(CCN2CCOCC2)C3=O)n1 + CNCc1ccccc1-c1csc(C(C)Nc2nc(C)nc3cc(OC)c(OC)cc23)c1: 21.2
COc1cc2nccc(Oc3ccc(NC(=O)C4(C(=O)Nc5ccc(F)cc5)CC4)cc3)c2cc1OC + C=CC(=O)N1CCN(c2nc(OCC3CCCN3C)nc3c2CCN(c2cccc4cccc(C)c24)C3)CC1CC#N: 0.86

### Prompt Fill in the blank: the reported viability, T/C of CCNC(=O)CC1N=C(c2ccc(Cl)cc2)c2cc(OC)ccc2-n2c(C)nnc21 (stereo not given) + C=CC(=O)N1CCN(c2nc(OCC3CCCN3C)nc3c2CCN(c2cccc4cccc(C)c24)C3)CC1CC#N is ____.
### Response 18.4

### Prompt What do we get for COc1cc(Nc2ncc3c(n2)-c2ccc(Cl)cc2C(c2c(F)cccc2OC)=NC3)ccc1C(=O)O + C=CC(=O)N1CCN(c2nc(OCC3CCCN3C)nc3c2CCN(c2cccc4cccc(C)c24)C3)CC1CC#N ?
### Response 74.3

====

This listing pairs compounds with measured viability, T/C.
# Tested on: KRAS patient-derived spheroids with HUVEC/MSC, viability
# Assay Name: Anticancer human tumor 519858-162-T-J1-PDC cell line growth inhibition [KRAS2];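 note: compound exposure lasted seven days before readout; 100% = DMSO vehicle control viability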
# Experimental Context: second compound 3.16 µM; first compound 0.0316 µM; hits give low values
# Source text: Multicellular complex tumor spheroid response to RAS pathway inhibitors in combination with a targeted agents in patient-derived cell lines with oncogenic KRAS variants from multiple cancer types A high-throughput screen of multi-cell type tumor spheroids was designed to identify active combinations of targeted small molecules and KRAS pathway inhibitors. […] Compounds. […] If the clinical Cmax for an agent had not been determined, the highest concentration tested was 10 microM. […]

CC(=O)Nc1cccc(-n2c(=O)n(C3CC3)c(=O)c3c(Nc4ccc(I)cc4F)n(C)c(=O)c(C)c32)c1 + COc1cc2nc(C)nc(NC(C)c3cc(N)cc(C(F)(F)F)c3)c2cc1OC1CCOC1: 8.2%
CC(=O)Nc1cccc(-n2c(=O)n(C3CC3)c(=O)c3c(Nc4ccc(I)cc4F)n(C)c(=O)c(C)c32)c1 + C=CC(=O)N1CCN(c2nc(OCC3CCCN3C)nc3c2CCN(c2cccc4cccc(C)c24)C3)CC1CC#N: 7.17%

### Prompt Fill in the blank: the reported viability, T/C of COC(=O)c1ccc2c(C(=Nc3ccc(N(C)C(=O)CN4CCN(C)CC4)cc3)c3ccccc3)c(O)[nH]c2c1 + C=CC(=O)N1CCN(c2nc(=O)n(-c3c(C)ccnc3C(C)C)c3nc(-c4c(O)cccc4F)c(F)cc23)C(C)C1 is ____.
### Response 96.9%
